Provide the recorded IC50 for the entries that follow.
test-target: 5-hydroxytryptamine receptor 2C (Homo sapiens)
Sequence (P28335 whole entry): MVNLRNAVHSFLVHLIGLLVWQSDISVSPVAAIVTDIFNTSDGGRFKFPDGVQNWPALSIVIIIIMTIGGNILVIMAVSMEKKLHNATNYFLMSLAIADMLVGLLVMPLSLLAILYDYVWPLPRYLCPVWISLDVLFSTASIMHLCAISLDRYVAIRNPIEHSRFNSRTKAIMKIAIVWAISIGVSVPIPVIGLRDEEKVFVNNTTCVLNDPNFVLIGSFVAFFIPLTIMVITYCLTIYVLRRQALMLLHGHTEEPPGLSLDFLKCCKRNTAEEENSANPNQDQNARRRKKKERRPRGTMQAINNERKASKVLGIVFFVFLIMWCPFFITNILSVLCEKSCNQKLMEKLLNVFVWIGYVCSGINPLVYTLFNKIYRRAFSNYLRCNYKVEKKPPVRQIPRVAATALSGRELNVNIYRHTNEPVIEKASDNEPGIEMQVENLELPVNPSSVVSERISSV
Form entry: value (nM) — number only.

Given item N#Cc1ccc(CCOC(=O)NC2CCN(CCCC(c3ccc(F)cc3)c3ccc(F)cc3)CC2)cc1 , the value recorded as its IC50 is 2760

Given item O=C(OC1CCc2ccccc21)N1CCC2(CC1)C(=O)NCN2c1ccccc1 (stereo not drawn) , the value recorded as its IC50 is 345

Given item O=C(OCc1cccc(Oc2ccccc2)c1)N1CCC2(CC1)C(=O)NCN2c1ccccc1 , the value recorded as its IC50 is 652

Origin of values: ChEMBL document CHEMBL1134625
